B1: FAM46C (parent)
chain: VRSRLEEAGIKVHDVRLNGSAAGH

- Variants of: B1
- EXPERIMENT: protein stability index of a GFP-peptide fusion (GPS, HEK-293T) (PSI 1-6); higher = more stable;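 note: lentivirally expressed fusions sorted by FACS into six bins by GFP to DsRed ratio, PSI derived from sequencing read proportions per bin multiplied by bin number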
- SETUP CONDITIONS: c terminus: a fixed tail appended
Classify on protein stability index using range A (below 2), range B (2 to below 3), range C (3 or more)

{"SEQ TEXT": "VRSRLEEAGIKVHEVRLNGSAAGH", "LABEL": "range B"}
{"SEQ TEXT": "VRSRLEEAGIKVHDVRLNFSAAGH", "LABEL": "range B"}
{"SEQ TEXT": "VRSRLEEAGIKVHCVRLNGSAAGH", "LABEL": "range B"}
{"SEQ TEXT": "VRSRLEEAGIKVHDVRLNGSTAGH", "LABEL": "range B"}
{"SEQ TEXT": "VRSRLEEAQIKVHDVRLNGSAAGH", "LABEL": "range C"}
{"SEQ TEXT": "VRSRQEEAGIKVHDVRLNGSAAGH", "LABEL": "range C"}
{"SEQ TEXT": "VVSRLEEAGIKVHDVRLNGSAAGH", "LABEL": "range B"}
{"SEQ TEXT": "VRSRLEEAGIKVHDVRLNGGAAGH", "LABEL": "range A"}
{"SEQ TEXT": "VRSRLEEAGIKVHWVRLNGSAAGH", "LABEL": "range A"}
{"SEQ TEXT": "VRSRLEEAMIKVHDVRLNGSAAGH", "LABEL": "range C"}
